System: Candida albicans
Experiment: In vitro Minimum inhibitory concentration (MIC) for antifungal activity against Candida albicans 2005
Type: functional
quantity: MIC (µg/mL)
Give just the numeric value; µg/mL need not be written.

{"columns": ["compound", "result unit", "MIC"],
 "data": [
  ["CCCC(=O)OC1C(O)[C@H](OCC23C[C@@H]4[C@H](C)CC[C@H]4C4(C=O)CC2C=C(C(C)C)C34C(=O)O)O[C@H](C)[C@H]1OC (single isomer, unassigned)", "µg/mL", 0.25]
]}

Look up MIC: CO[C@H]1C(OC(=O)c2ccco2)C(O)[C@H](OCC23C[C@@H]4[C@H](C)CC[C@H]4C4(C=O)CC2C=C(C(C)C)C34C(=O)O)O[C@@H]1C (single isomer, unassigned)
2

Look up MIC: COCC(=O)OC1C(O)[C@H](OCC23C[C@@H]4[C@H](C)CC[C@H]4C4(C=O)CC2C=C(C(C)C)C34C(=O)O)O[C@H](C)[C@H]1OC (single isomer, unassigned)
62

Look up MIC: COC1C(O)C(O)[C@H](OCC23C[C@@H]4[C@H](C)CC[C@H]4C4(C=O)CC2C=C(C(C)C)C34C(=O)O)O[C@@H]1C (single isomer, unassigned)
8

* * *

Test system: Candida tropicalis
Test: In vitro Minimum inhibitory concentration (MIC) for antifungal activity against Candida tropicalis 2808
Format: functional
quantity: MIC (µg/mL)
Give just the numeric value; µg/mL need not be written.

// solved cases for MIC follow
{"columns": ["compound", "subject of test", "result unit", "MIC"],
 "data": [
  ["CCCCCCCC(=O)OC1C(O)[C@H](OCC23C[C@@H]4[C@H](C)CC[C@H]4C4(C=O)CC2C=C(C(C)C)C34C(=O)O)O[C@H](C)[C@H]1OC (single isomer, unassigned)", "Candida tropicalis", "µg/mL", 0.06],
  ["CCCCCCCCNC(=O)O[C@H]1C(O)[C@H](OCC23C[C@@H]4[C@H](C)CC[C@H]4C4(C=O)CC2C=C(C(C)C)C34C(=O)O)O[C@H](C)[C@H]1OC (stereo not given in full)", "Candida tropicalis", "µg/mL", 2],
  ["CCCCC(C)C(=O)OC1C(O)[C@H](OCC23C[C@@H]4[C@H](C)CC[C@H]4C4(C=O)CC2C=C(C(C)C)C34C(=O)O)O[C@H](C)[C@H]1OC (single isomer, unassigned)", "Candida tropicalis", "µg/mL", 0.25],
  ["CO[C@@H]1[C@@H](C)O[C@@H](OCC23C[C@@H]4[C@H](C)CC[C@H]4C4(C=O)CC2C=C(C(C)C)C34C(=O)O)C(O)[C@@H]1OC(=O)OCc1ccccc1 (stereo not given in full)", "Candida tropicalis", "µg/mL", 8],
  ["CCCCCCCCCC(=O)OC1C(O)[C@H](OCC23C[C@@H]4[C@H](C)CC[C@H]4C4(C=O)CC2C=C(C(C)C)C34C(=O)O)O[C@H](C)[C@H]1OC (single isomer, unassigned)", "Candida tropicalis", "µg/mL", 8]
]}

Look up MIC: COC1C(O)C(O)[C@H](OCC23C[C@@H]4[C@H](C)CC[C@H]4C4(C=O)CC2C=C(C(C)C)C34C(=O)O)O[C@@H]1C (single isomer, unassigned)
16

Look up MIC: C/C=C/C=C(\C)C(=O)O[C@H]1C(O)[C@H](OCC23C[C@@H]4[C@H](C)CC[C@H]4C4(C=O)CC2C=C(C(C)C)C34C(=O)O)O[C@H](C)[C@H]1OC (stereo not given in full)
0.06

Look up MIC: CCC/C=C(\C)C(=O)O[C@H]1C(O)[C@H](OCC23C[C@@H]4[C@H](C)CC[C@H]4C4(C=O)CC2C=C(C(C)C)C34C(=O)O)O[C@H](C)[C@H]1OC (stereo not given in full)
0.5

Look up MIC: CO[C@H]1C(OC(=O)c2ccco2)C(O)[C@H](OCC23C[C@@H]4[C@H](C)CC[C@H]4C4(C=O)CC2C=C(C(C)C)C34C(=O)O)O[C@@H]1C (single isomer, unassigned)
8

Look up MIC: CCCC(=O)OC1C(O)[C@H](OCC23C[C@@H]4[C@H](C)CC[C@H]4C4(C=O)CC2C=C(C(C)C)C34C(=O)O)O[C@H](C)[C@H]1OC (single isomer, unassigned)
2
